- Test system: DU-145 prostate
- method: NCI-60 one-dose screen, 48 h (100 = growth as untreated, 0 = no growth, -100 = all killed)
- test.parameters: 10 µM unless noted
About 83,000 compounds went through this panel and 20% of them were active in at least one assay; those are over-represented in the sample as a whole.
measured.quantity: growth (%)

>>> numeric_value("Cc1ccc(C(CN(C)C)C(=O)c2ccccc2)cc1 (stereo not given)")
34.7
>>> numeric_value("COc1ccc([C@H]2c3[nH]c4ccccc4c3C[C@H]3C(=O)N(CCCCCCC(=O)NO)CC(=O)N23)cc1")
24.2
>>> numeric_value("CCN(CC)c1cc(C)c(Cc2c(OC)ccc3ccccc23)cc1C")
105
>>> numeric_value("CCN(CC)CCNC(=O)n1cc(-c2ccncc2)c(-c2cc(Cl)cc(OC)c2)n1")
81.3
>>> numeric_value("CC(C)CCSc1nc(Nc2ccccc2)c(C#N)c(-c2ccc(F)cc2)n1")
82.3

----------
- System: U251 CNS
- method: NCI-60 one-dose screen, 48 h (100 = growth as untreated, 0 = no growth, -100 = all killed)
- test.parameters: 10 µM unless noted
Compounds without any hit were thinned out: in the full panel of roughly 83,000, 20% have a hit.
Consider the following molecules and their measured growth readings.
measured.quantity: growth (%)

>>> numeric_value("COc1cc(C2CC(=O)Nc3c2cnn3C)cc(OC)c1OC (stereo not given)")
100
>>> numeric_value("O=C(/C=C/c1ccccc1Br)c1cccc(OCCCCOc2cccc(C(=O)/C=C/c3ccccc3Br)c2)c1")
77
>>> numeric_value("Cc1ccc(C(CN(C)C)C(=O)c2ccccc2)cc1 (stereo not given)")
41.7
>>> numeric_value("C/C(=N\\Nc1ccc([N+](=O)[O-])cn1)c1ccc(N)cc1")
95.7
>>> numeric_value("COc1ccc2[nH]cc(C3(c4c[nH]c5ccc(OC)cc45)C(=O)Nc4ccc(Cl)cc43)c2c1")
72.2
>>> numeric_value("Cn1cnc([N+](=O)[O-])c1S(=O)(=O)Oc1cccc2ccccc12")
57.6
>>> numeric_value("O=C(O)C(CCc1ccccc1)NCc1ccccc1 (stereo not given)")
107
>>> numeric_value("CCCCOC(=O)c1cc(O)c(O)c(O)c1")
65.2
>>> numeric_value("CCN(CC)CCCC(C)Nc1ccnc2ccc(Oc3ccccc3)cc12 (stereo not given)")
63.5
>>> numeric_value("Clc1nnc2c3ccccc3ccn12")
102
>>> numeric_value("COc1ccc(NC(=O)Cn2c(=O)sc3c(-c4ccc(Cl)cc4)cc(-c4ccc(Cl)cc4)nc32)cc1")
103
>>> numeric_value("Cc1ccc(C)c(NC(=O)c2sc3c(=O)[nH]cnc3c2C)c1")
86.1
>>> numeric_value("O=P(O)(O)C(O)(Cc1cccnc1)P(=O)(O)O")
81.6
>>> numeric_value("COc1cc(NC(=O)CSc2nc3ccc(Cl)cc3c(=O)n2-c2ccccc2)cc(OC)c1OC")
92.5
>>> numeric_value("O=C(CSc1nnc(Cc2ccccc2Nc2c(Cl)cccc2Cl)n1-c1ccccc1)N1N=C(c2ccc3ccccc3c2)CC1c1ccc(Cl)cc1 (stereo not given)")
98.3
>>> numeric_value("COc1ccc2c(c1)OC1=C(C(=O)OC1)C2c1cc(OC)c2c(c1)OCCO2 (stereo not given)")
20.5
>>> numeric_value("c1ccc(-c2ccc(-c3ccccc3)[nH]2)cc1")
105
>>> numeric_value("COCc1nc(NS(=O)(=O)c2ccc(N)cc2)nc(C)c1Br")
103
>>> numeric_value("O=C(c1ccccc1)C(CCc1ccccn1)CCc1ccccn1")
101
>>> numeric_value("CCn1c(Cc2ccccc2Nc2c(Cl)cccc2Cl)nnc1SCC(=O)Nc1cccc(OC)c1")
86.1
>>> numeric_value("CCOC(=O)Cn1c(-c2nonc2NC(=O)c2ccccc2F)nc2ccccc21")
28.1
>>> numeric_value("CC(C)c1nc2ccccc2n1CC(=O)N/N=C/c1cccc(O)c1")
103
>>> numeric_value("O=c1c2cc(Cl)ccc2oc2ccc(OCCCCCN3CCCCC3)cc12")
46
>>> numeric_value("Cc1cc(O)ccc1Sc1ccccc1[N+](=O)[O-]")
94.2
>>> numeric_value("O=C1OC(/C=C/c2ccccc2)=NC/1=C/c1ccccc1[N+](=O)[O-]")
100
>>> numeric_value("N#CCCn1cnc2c(N)ncnc21")
98.8
>>> numeric_value("ClCc1c(Cl)c(Cl)c(Cl)c(CCl)c1Cl")
-25.4
>>> numeric_value("CCC(=O)NC1=C(Cl)C(=O)C(NC(=O)CC)=C(Cl)C1=O")
92.8
>>> numeric_value("O=C1Nc2ccc(Cl)cc2/C1=C\\c1c(-c2ccc(F)cc2)nc2ccccn12")
23.2
>>> numeric_value("Nc1ncnc2c1N=C(c1ccc3c(c1)OCO3)CC(c1ccc(Cl)cc1)N2 (stereo not given)")
74
>>> numeric_value("Clc1cc(Cl)cc(-c2cnc3nonc3n2)c1")
106
>>> numeric_value("O=C(O)CSc1ccc(NCc2oc(CO)cc(=O)c2O)cc1")
103
>>> numeric_value("COc1ccc(Oc2nc(Nc3ccc(N4CCOCC4)cc3)ncc2NC(=O)Nc2cccc(OC)c2)cc1")
48.8
>>> numeric_value("C[N+](C)(C)CC(=O)N/N=C\\c1ccco1")
98.7
>>> numeric_value("COc1cc2c(=O)n(CCCN(C)C)c3c4cc[nH]c4ncc3c2cc1OC")
35.1
>>> numeric_value("O=C1/C(=C/c2ccccc2)SC(=Nc2ccccc2)N1Nc1ccccc1")
6.12
>>> numeric_value("COc1ccc2c(c1)N(Cc1ccc(Cl)cc1)CCC2N1CCCC1=O (stereo not given)")
39.1
>>> numeric_value("COc1ccc2c(c1)C1=NN(C(=O)CO)[C@H](c3ccc(OC(F)(F)F)cc3)[C@@H]1CC2")
87.3
>>> numeric_value("NS(=O)(=O)c1ccc(CCn2c(SCC(=O)N/N=C/c3cccnc3)nc3ccccc3c2=O)cc1")
87.7
>>> numeric_value("COc1cc(C2CC(c3ccc(Cl)cc3)=NN2C=O)ccc1Oc1ccnc2cc(Cl)ccc12 (stereo not given)")
72.5

Taken from PubChem BioAssay (NCI).
